System: Human tumour cells (cell line panel)
Assay: Proliferation assay: cell line panel (crystal violet, 4 days)
Format: cell-based
Settings: MCF7, breast cancer, 4000 cells/well, read-out: Result Category, IC50 (mean)
PARAMETER: IC50

Q) Supply reported IC50 belonging to this molecule: Brc1cnn2c(NCc3nc4ccccc4[nH]3)nc(N3CCOCC3)nc12
A) ≥ 100 nM

====

Biological target: CYCLIN K (nuclear staining in CAL-120 cells) (Homo sapiens, UniProt O75909)
Construct: endogenous in cells; host or cells: CAL-120 human breast cancer cells (DSMZ ACC 459)
Test: CYCLIN K nuclear protein level: immunofluorescence high content analysis (CAL-120)
Format: cell-based
Conditions: 24 h, 50% reduction of nuclear CCNK staining intensity, median, read-out: CYCLIN K degradation IF, DC50-[mol/l] (median)
PARAMETER: DC50 (nM)
Give the value in nM but do not write nM after it.

Consider the reported DC50 for these molecules:
[[record]]
molecule = "Brc1cnn2c(NCc3nnc(-c4ccccc4)[nH]3)nc(N3CCNCC3)nc12.O=CO [Example 119, formate]"
subject_of_test = "CYCLIN K (nuclear staining in CAL-120 cells) (Homo sapiens, UniProt O75909)"
parameter = "DC50"
quantity_unit = "nM"
result_value = 3

[[record]]
molecule = "c1ccc2[nH]c(CNc3nc(N4C[C@@H]5C[C@H]4CO5)nc4c(C5CC5)cnn34)nc2c1"
subject_of_test = "CYCLIN K (nuclear staining in CAL-120 cells) (Homo sapiens, UniProt O75909)"
parameter = "DC50"
quantity_unit = "nM"
result_value = 4.17

[[record]]
molecule = "COC(C)(C)CNc1nc(NCc2nc3ccccc3[nH]2)n2ncc(Br)c2n1"
subject_of_test = "CYCLIN K (nuclear staining in CAL-120 cells) (Homo sapiens, UniProt O75909)"
parameter = "DC50"
quantity_unit = "nM"
result_value = 1.72

[[record]]
molecule = "Fc1ccc2[nH]c(CNc3nc(N4CCOCC4)nc4c(C5CC5)cnn34)nc2c1"
subject_of_test = "CYCLIN K (nuclear staining in CAL-120 cells) (Homo sapiens, UniProt O75909)"
parameter = "DC50"
quantity_unit = "nM"
result_value = 0.503


Q) Supply reported DC50 belonging to this molecule: CN1CC[C@@H]2CN(c3nc(NCc4nc5ccccc5[nH]4)n4ncc(Br)c4n3)C[C@@H]21
A) 4.56

Q) Supply reported DC50 belonging to this molecule: FC(F)(F)Oc1ccccc1-c1cnc(CNc2nc(N3CCOCC3)nc3c(Br)cnn23)[nH]1
A) 1.43

Q) Supply reported DC50 belonging to this molecule: Brc1cnn2c(NCc3nnc(-c4ccccc4)[nH]3)nc(N3C[C@@H]4C[C@H]3CO4)nc12
A) 2.19

Q) Supply reported DC50 belonging to this molecule: Brc1cnn2c(NCc3nc4ccccc4[nH]3)nc(N3CCN4CCC[C@H]4C3)nc12
A) 8.06

Q) Supply reported DC50 belonging to this molecule: C[C@@H]1CN(c2nc(NCc3nnc(-c4ccccc4)[nH]3)n3ncc(Br)c3n2)C[C@H](C)N1C
A) 1.2

====

Target: CDK12 (nuclear staining in CAL-120 cells) (Homo sapiens, UniProt Q9NYV4)
Construct: endogenous in cells; host or cells: CAL-120 human breast cancer cells (DSMZ ACC 459)
Sequence (Q9NYV4 whole entry): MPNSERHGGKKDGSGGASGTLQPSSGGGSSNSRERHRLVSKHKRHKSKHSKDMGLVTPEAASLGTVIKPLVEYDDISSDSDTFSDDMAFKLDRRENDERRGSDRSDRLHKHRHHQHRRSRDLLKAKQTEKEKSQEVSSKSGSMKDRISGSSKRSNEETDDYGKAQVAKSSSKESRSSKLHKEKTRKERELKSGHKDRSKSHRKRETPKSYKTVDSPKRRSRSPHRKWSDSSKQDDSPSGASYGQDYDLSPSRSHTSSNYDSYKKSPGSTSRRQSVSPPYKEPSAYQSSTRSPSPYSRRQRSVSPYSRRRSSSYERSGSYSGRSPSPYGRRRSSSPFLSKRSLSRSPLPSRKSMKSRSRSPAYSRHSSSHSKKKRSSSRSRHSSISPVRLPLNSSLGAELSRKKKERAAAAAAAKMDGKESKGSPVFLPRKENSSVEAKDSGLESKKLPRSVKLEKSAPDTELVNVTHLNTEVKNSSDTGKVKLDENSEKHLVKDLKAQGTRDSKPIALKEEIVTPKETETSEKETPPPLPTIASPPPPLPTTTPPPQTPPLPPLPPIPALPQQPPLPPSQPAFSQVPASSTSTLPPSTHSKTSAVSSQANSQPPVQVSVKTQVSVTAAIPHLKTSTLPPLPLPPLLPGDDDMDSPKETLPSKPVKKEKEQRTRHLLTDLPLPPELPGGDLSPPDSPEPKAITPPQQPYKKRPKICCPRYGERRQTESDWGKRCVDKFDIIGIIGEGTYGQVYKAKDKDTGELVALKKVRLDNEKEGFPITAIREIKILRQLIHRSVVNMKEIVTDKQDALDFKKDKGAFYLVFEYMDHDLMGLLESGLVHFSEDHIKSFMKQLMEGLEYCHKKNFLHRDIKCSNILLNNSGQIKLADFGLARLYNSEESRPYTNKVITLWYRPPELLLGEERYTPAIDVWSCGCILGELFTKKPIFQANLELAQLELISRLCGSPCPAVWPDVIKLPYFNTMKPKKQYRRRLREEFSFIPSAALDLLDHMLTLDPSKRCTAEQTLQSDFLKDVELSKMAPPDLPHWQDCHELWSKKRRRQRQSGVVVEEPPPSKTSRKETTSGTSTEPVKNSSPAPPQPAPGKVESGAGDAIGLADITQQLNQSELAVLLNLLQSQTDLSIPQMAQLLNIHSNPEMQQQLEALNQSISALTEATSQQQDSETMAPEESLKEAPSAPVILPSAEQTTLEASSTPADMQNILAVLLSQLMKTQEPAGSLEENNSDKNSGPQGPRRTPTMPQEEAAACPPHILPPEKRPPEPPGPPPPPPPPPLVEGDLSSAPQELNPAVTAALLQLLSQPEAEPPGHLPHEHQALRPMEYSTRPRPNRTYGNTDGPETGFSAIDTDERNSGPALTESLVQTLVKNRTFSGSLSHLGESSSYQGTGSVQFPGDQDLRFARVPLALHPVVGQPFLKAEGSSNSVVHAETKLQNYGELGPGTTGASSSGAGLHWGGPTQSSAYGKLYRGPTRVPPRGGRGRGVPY
Sequence (O75909 whole entry partner): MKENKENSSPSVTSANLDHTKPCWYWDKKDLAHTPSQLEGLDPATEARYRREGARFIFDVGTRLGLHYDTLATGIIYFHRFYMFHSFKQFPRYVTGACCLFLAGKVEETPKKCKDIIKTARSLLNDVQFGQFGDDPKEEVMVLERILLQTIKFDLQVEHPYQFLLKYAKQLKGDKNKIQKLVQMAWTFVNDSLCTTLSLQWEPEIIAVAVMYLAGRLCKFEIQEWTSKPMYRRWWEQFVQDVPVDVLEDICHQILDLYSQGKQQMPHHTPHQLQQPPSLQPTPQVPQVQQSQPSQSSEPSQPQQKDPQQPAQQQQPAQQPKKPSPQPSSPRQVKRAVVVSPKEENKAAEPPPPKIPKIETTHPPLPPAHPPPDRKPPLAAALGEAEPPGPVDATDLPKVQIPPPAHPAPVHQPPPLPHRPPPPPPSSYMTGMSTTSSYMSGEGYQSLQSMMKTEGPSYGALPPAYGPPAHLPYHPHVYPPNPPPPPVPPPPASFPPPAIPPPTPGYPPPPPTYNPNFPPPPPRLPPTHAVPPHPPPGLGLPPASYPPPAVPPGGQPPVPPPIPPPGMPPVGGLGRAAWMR
Experiment: CDK12 nuclear protein level: immunofluorescence/high content analysis (CAL-120)
Assay type: cell-based
Conditions: CAL-120 cells, 24 h, immunofluorescence; 50% reduction of nuclear CDK12 staining intensity; median; read-out: CDK12 degradation IF, DC50- [mol/l] (median)
In this section we review reported DC50 values for a set of compounds.
Give the value in nM but do not write nM after it.

Consider the reported DC50 for these compounds:
[[record]]
substance_smiles = "NCCc1cccc2[nH]c(CNc3nc(N4CCOCC4)nc4c(Br)cnn34)nc12"
result_value = 50

[[record]]
substance_smiles = "FC(F)(F)c1ccccc1-c1cnc(CNc2nc(N3CCOCC3)nc3c(Br)cnn23)[nH]1"
result_value = 16.3

[[record]]
substance_smiles = "Brc1cnn2c(NCc3nc4ccccc4[nH]3)nc(N3CC4CCC(C3)O4)nc12"
result_value = 24


Here's the next entry for you.
Q) Supply reported DC50 belonging to this compound: C[C@@H]1CN(c2nc(NCc3nc4ccccc4[nH]3)n3ncc(Br)c3n2)C[C@H](C)N1C
A) 4.98

====

Biological target: CDK9/CycT1 (Homo sapiens, UniProt P50750)
Construct: Recombinant full-length His-tagged human CDK9 and CycT1; purchased Life Technologies PV4131; host or cells: insect cells
Sequence (P50750 whole entry): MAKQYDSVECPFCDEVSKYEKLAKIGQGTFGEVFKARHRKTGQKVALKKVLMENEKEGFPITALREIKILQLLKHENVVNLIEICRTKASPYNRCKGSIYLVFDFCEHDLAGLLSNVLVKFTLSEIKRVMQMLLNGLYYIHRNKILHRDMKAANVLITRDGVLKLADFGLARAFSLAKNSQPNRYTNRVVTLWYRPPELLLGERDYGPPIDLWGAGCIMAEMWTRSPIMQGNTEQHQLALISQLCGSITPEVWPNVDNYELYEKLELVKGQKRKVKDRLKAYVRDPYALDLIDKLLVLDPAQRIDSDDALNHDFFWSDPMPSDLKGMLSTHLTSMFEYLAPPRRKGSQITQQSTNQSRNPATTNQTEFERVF
Sequence (O60563 whole entry partner): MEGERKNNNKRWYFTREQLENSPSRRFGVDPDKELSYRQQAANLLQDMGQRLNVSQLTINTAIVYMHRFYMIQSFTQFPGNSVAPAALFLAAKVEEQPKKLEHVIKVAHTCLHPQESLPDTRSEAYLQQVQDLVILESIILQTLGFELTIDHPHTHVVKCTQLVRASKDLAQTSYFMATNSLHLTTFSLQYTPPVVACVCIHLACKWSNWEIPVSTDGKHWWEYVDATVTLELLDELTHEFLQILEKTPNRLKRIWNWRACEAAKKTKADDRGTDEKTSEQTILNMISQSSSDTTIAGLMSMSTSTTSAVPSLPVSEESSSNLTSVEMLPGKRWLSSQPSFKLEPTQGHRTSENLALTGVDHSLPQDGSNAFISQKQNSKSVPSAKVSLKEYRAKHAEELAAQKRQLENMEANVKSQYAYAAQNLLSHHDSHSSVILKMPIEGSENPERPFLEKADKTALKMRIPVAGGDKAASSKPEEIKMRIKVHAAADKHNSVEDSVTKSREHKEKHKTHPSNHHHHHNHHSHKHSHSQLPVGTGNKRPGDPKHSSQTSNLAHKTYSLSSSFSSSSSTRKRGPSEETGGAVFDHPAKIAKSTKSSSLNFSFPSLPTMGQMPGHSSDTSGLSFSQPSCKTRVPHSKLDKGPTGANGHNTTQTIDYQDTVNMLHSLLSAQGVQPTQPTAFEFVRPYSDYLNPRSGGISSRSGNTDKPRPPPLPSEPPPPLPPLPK
Test: CDK9/CycT1 high ATP kinase assay (TR-FRET, 2 mM ATP)
Type: biochemical
Details: 2 mM ATP (high ATP); median; read-out: CDK9/CyclinT1, 2 mM ATP (high ATP), IC50 (median)
PARAMETER: IC50

Consider the reported IC50 for these compounds:
[[record]]
compound = "Cc1cccc(-c2nnc(CNc3nc(N4CCOCC4)nc4c(Br)cnn34)[nH]2)c1"
parameter = "IC50"
result_value = "2.82 µM"

[[record]]
compound = "CN1CCN(c2nc(NCc3nc4ccccc4[nH]3)n3ncc(Br)c3n2)CC1=O"
parameter = "IC50"
result_value = "> 20 µM"

[[record]]
compound = "OC[C@@H]1CCCCN1c1nc(NCc2nnc(-c3ccccc3)[nH]2)n2ncc(Br)c2n1"
parameter = "IC50"
result_value = "0.569 µM"

[[record]]
compound = "CC(C)c1cnn2c(NCc3nc4ccccc4[nH]3)nc(Nc3ccccc3)nc12"
parameter = "IC50"
result_value = "> 20 µM"

[[record]]
compound = "CN1CCN(c2nc(NCc3nnc(-c4cccc(F)c4)[nH]3)n3ncc(Br)c3n2)CC1"
parameter = "IC50"
result_value = "1.42 µM"


Here's the next entry for you.
Q) Param request: IC50 | system CDK9/CycT1 (Homo sapiens, UniProt P50750) | item Fc1ccc2[nH]c(CNc3nc(N4C[C@H]5CC[C@@H](C4)N5)nc4c(C5CC5)cnn34)nc2c1F
A) 15.3 µM

====

Target: CDK2/CycE (Homo sapiens)
Experiment: CDK2/CycE kinase assay (TR-FRET, 2 mM ATP)
Conditions: 2 mM ATP (high ATP); median; read-out: CDK2/CyclinE, 2 mM ATP (high ATP), IC50 (median)
Experimental: CDK2/CycE-inhibitory activity of compounds of the present invention was quantified employing the CDK2/CycE TR-FRET assay as described in the following paragraphs. […] The resulting mixture was incubated 1 h at 22° C. to allow the formation of complex between the phosphorylated biotinylated peptide and the detection reagents. Subsequently the amount of phosphorylated substrate was evaluated by measurement of the resonance energy transfer from the Eu-chelate to the streptavidine-XL. […]
PARAMETER: pIC50
# pIC50 is unitless: minus log10 of the molar concentration; print number only

Consider the reported pIC50 for these compounds:
[[record]]
substance_smiles = "Fc1cc(F)cc(-c2nnc(CNc3nc(N4CCOCC4)nc4c(Br)cnn34)[nH]2)c1"
parameter = "pIC50"
result_value = 6.08

[[record]]
substance_smiles = "CN(CC(C)(C)O)c1nc(NCc2nc3cc(F)c(F)cc3[nH]2)n2ncc(Br)c2n1"
parameter = "pIC50"
result_value = 5.04


Q) Supply reported pIC50 belonging to this compound: CCNc1nc(NCc2ncc(-c3ccccc3)[nH]2)n2ncc(C(C)C)c2n1
A) 5.21

Q) Supply reported pIC50 belonging to this compound: Brc1cnn2c(NCc3nc4ccccc4[nH]3)nc(N3CC4CCC(C3)O4)nc12
A) 5.13

Q) Supply reported pIC50 belonging to this compound: NC1CCN(c2nc(NCc3nc4ccccc4[nH]3)n3ncc(Br)c3n2)CC1
A) 5.30

Q) Supply reported pIC50 belonging to this compound: Clc1ccccc1-c1nnc(CNc2nc(N3CCOCC3)nc3c(Br)cnn23)[nH]1
A) 4.92

Q) Supply reported pIC50 belonging to this compound: Cc1ccc2[nH]c(CNc3nc(N4CCNCC4)nc4c(Br)cnn34)nc2c1
A) 4.96

Q) Supply reported pIC50 belonging to this compound: Fc1cccc2[nH]c(CNc3nc(N4CC5CCC(C4)N5)nc4c(Cl)cnn34)nc12
A) 5.06

Q) Supply reported pIC50 belonging to this compound: N[C@H]1CN(c2nc(NCc3nc4ccccc4[nH]3)n3ncc(Br)c3n2)CC12CC2
A) 5.85

Q) Supply reported pIC50 belonging to this compound: Fc1ccc(-c2nnc(CNc3nc(N4CCOCC4)nc4c(Br)cnn34)[nH]2)cc1
A) 5.51

Q) Supply reported pIC50 belonging to this compound: C[C@@H]1CN(c2nc(NCc3nc4c(F)cccc4[nH]3)n3ncc(Br)c3n2)C[C@H](C)O1
A) 5.40

Q) Supply reported pIC50 belonging to this compound: Clc1ccc(-c2nnc(CNc3nc(N4CCOCC4)nc4c(Br)cnn34)[nH]2)cc1
A) 5.27

Q) Supply reported pIC50 belonging to this compound: FC(F)(F)Oc1ccccc1-c1cnc(CNc2nc(N3CCOCC3)nc3c(Br)cnn23)[nH]1
A) 5.01

Q) Supply reported pIC50 belonging to this compound: CC(C)c1cnn2c(NCc3nnc(-c4ccccc4)[nH]3)nc(N3CCOCC3)nc12
A) 5.08

Q) Supply reported pIC50 belonging to this compound: Fc1cc2nc(CNc3nc(N4CCOCC4)nc4c(Br)cnn34)[nH]c2cc1Cl
A) 5.05

Q) Supply reported pIC50 belonging to this compound: COc1cccc(-c2nnc(CNc3nc(N4CCOCC4)nc4c(Br)cnn34)[nH]2)c1
A) 5.63

Q) Supply reported pIC50 belonging to this compound: OCCNc1nc(NCc2nc3ccccc3[nH]2)n2ncc(Br)c2n1
A) 5.04

Q) Supply reported pIC50 belonging to this compound: CCNc1nc(NCc2nnc(-c3ccccc3)[nH]2)n2ncc(C(C)C)c2n1
A) 5.08

Q) Supply reported pIC50 belonging to this compound: Fc1cccc2[nH]c(CNc3nc(N4C[C@H]5CC[C@@H](C4)N5)nc4c(C5CC5)cnn34)nc12
A) 5.25

Q) Supply reported pIC50 belonging to this compound: Cc1cc2nc(CNc3nc(N(C)CC(C)(C)O)nc4c(Br)cnn34)[nH]c2cc1C
A) 5.92

Q) Supply reported pIC50 belonging to this compound: CCc1cnn2c(NCc3nc4c(OC)cccc4[nH]3)nc(N3CCOCC3)nc12
A) 5.75

Q) Supply reported pIC50 belonging to this compound: Brc1cnn2c(NCc3nc4ccccc4[nH]3)nc(N3CCNC4(CC4)C3)nc12
A) 5.07
